Measured pIC50 on hα2B receptor (Homo sapiens) follows.
Sequence (P18089 whole entry): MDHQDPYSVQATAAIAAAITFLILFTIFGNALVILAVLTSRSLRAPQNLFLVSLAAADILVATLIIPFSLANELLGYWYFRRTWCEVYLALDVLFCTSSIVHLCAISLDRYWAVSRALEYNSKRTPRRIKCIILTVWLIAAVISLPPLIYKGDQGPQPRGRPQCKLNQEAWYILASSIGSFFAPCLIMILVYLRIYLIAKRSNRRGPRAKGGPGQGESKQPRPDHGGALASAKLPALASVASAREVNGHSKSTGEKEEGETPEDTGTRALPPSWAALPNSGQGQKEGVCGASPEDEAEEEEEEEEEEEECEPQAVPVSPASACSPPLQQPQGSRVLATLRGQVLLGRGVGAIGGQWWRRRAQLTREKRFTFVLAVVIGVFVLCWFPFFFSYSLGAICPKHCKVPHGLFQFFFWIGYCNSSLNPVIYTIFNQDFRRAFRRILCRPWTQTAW
Here pIC50 is given on a logarithmic scale as minus log10 of the concentration in mol/L.

- compound: "COc1cc2c(c(I)c1OC)OCC1C2=NOC1CN1CCN(CC(C)=Cc2ccc(F)cc2)CC1 (stereo not drawn)"
  target system: "hα2B receptor (Homo sapiens)"
  value observed: 7.50
- compound: "CCOC(=O)c1c(OC)c(OC)cc2c1OC[C@@H]1C2=NO[C@H]1CN1CCN(C/C(C)=C/c2ccccc2)CC1 (single isomer, unassigned)"
  target system: "hα2B receptor (Homo sapiens)"
  value observed: 8.40

Now, please, on to the next compound.
Q: Indicate the recorded pIC50 value for this compound: CC(=Cc1ccccc1)CN1CCN(CC2ON=C3c4c(O)cccc4OCC32)CC1 (stereo not drawn)
Ans: 8.70

---

Protein target, amino acids: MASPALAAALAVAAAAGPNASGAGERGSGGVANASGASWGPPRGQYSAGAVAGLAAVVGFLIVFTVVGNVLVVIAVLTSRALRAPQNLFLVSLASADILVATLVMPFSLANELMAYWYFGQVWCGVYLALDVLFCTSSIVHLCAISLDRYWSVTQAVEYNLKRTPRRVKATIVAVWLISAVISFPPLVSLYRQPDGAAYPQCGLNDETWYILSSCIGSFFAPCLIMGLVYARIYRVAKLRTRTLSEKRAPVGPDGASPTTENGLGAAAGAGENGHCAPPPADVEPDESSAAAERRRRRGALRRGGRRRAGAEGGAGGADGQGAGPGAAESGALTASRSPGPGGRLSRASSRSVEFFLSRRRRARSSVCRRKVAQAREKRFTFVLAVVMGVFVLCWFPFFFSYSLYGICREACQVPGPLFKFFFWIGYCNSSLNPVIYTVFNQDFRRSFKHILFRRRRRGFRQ
property name: IC50 (nM)
Quick reminder: number only, in nM, skip the unit.

Known IC50 results, listed for orientation:
- compound: "CC(=Cc1ccccc1)CN1CCN(CC2ON=C3c4c(O)cccc4OCC32)CC1 (stereo not drawn)"
  IC50, nM: 1.26
- compound: "CC(=Cc1ccccc1)CN1CCN(CC2ON=C3c4cccc(NCc5ccccc5)c4OCC32)CC1 (stereo not drawn)"
  IC50, nM: 20
- compound: "COc1cc2c(c(I)c1OC)OCC1C2=NOC1CN1CCN(CC(C)=Cc2ccc(F)cc2)CC1 (stereo not drawn)"
  IC50, nM: 25.1
- compound: "COC(=O)c1c(OC)c(OC)cc2c1OCC1C2=NOC1CN1CCN(C/C(C)=C/c2ccccc2)CC1 (single isomer, unassigned)"
  IC50, nM: 1.26
- compound: "COCC(=O)OCCOc1cccc2c1OCC1C2=NOC1CN1CCN(CC(C)=Cc2ccccc2)CC1 (single isomer, unassigned) [Compound 25]"
  IC50, nM: 2

Q: # return recorded IC50 for entry CC(=O)Nc1cccc2c1OCC1C2=NOC1CN1CCN(CC(C)=Cc2ccccc2)CC1 (stereo not drawn)
Ans: 3.98

Q: Please report IC50 for the following compound: COc1cc2c(c(C)c1OC)OC[C@@H]1C2=NO[C@H]1CN1CCN(C/C(C)=C/c2ccccc2)CC1 (single isomer, unassigned)
Ans: 0.398

Q: Quickly give me recorded IC50 for COc1cc2c(c(Br)c1OC)OCC1C2=NOC1CN1CCN(C/C(C)=C/c2ccccc2)CC1 (stereo not drawn)
Ans: 1

Q: Recall and state the measured IC50 for COCC(=O)OCCOc1cccc2c1OCC1C2=NOC1CN1CCN(CC(C)=Cc2ccccc2)CC1 (single isomer, unassigned) [Compound 24] .
Ans: 39.8

Recorded values, source patent US7462717B2.
